pIC50: −log10 of the molar value.
Compiled notes: published pIC50 values involving Fibroblast growth factor receptor 4 (Homo sapiens, UniProt P22455).
reported-endpoint: pIC50

Guide cases for pIC50, answers given:
>>> number("C=CC(=O)N[C@H]1COC[C@H]1Nc1ncc2cc(-c3c(Cl)c(OC)cc(OC)c3Cl)nc(NCC3CC3)c2n1")
7.91
>>> number("C=CC(=O)N[C@H]1COC[C@H]1Nc1ncc2cc(-c3cc(OC)cc(OC)c3Cl)ncc2n1")
6.74
>>> number("COCCNc1cc(NC(=O)N2CCCc3cc(CN4CCN(C5CC5)CC4=O)c(C=O)nc32)ncc1C#N")
8.79

P = CC1OCCC1Sc1cc(NC(=O)N2CCCc3cc(CN4CCOCC4=O)c(C=O)nc32)ncc1C#N (stereo not shown)
Q = COCC(=O)N(C)Cc1cc2c(nc1C=O)N(C(=O)Nc1cc(N[C@@H]3COC[C@H]3OC)c(C#N)cn1)CCC2 (relative stereo)
Q. Look at P and Q . Which one has the lower recorded pIC50 number? Respond with the label that goes with your answer.
A. P
(P: 8.27, Q: 8.97)

A = CO[C@H]1COCC1Oc1cc(NC(=O)N2CCCc3cc(CN4C(=O)OC[C@@H]4C)c(C=O)nc32)ncc1C#N (stereo partly shown)
B = COc1cc(OC)c(F)c(/C=C/c2cnc(NC(=O)N3CCCc4ccc(C=O)nc43)nc2)c1F
Q. When their pIC50 values are compared, which is larger, A or B ? Respond with the label that goes with your answer.
A. B
